Assay: Plasma stability, mouse plasma
Details: mouse plasma, 37° C., timepoint 0 h
Bridge positions count the residues as written; N and C are the ends. Square brackets hold non-standard residues; d marks the D form. Peptide text beside a SMILES is read from it.
Kindly return T if reported Tube 2 (compound concentration) is no lower than 3; return F if it is lower.

>  <compound>
CC(=O)N[C@@H](CO)C(=O)N[C@@H](CCCNC(=N)N)C(=O)N[C@@H](CC(C)C)C(=O)N[C@@H](CCC(=O)O)C(=O)N[C@H]1CC(=O)NCCCC[C@@H](C(=O)N[C@@H](CCCNC(=N)N)C(=O)N[C@@H](CC(C)C)C(=O)N[C@H](C(=O)N[C@@H](CCC(=O)O)C(N)=O)[C@@H](C)O)NC(=O)[C@H](CCCNC(=N)N)NC(=O)[C@H](CC(C)C)NC(=O)[C@H](CCC(=O)O)NC1=O [SD15196] (Ac-SRLEDELRKRLTE-NH2; lactam 5-9)

>  <qualitative.label>
F

$$$$
>  <compound>
CC(=O)N[C@@H](CO)C(=O)N[C@@H](CCCNC(=N)N)C(=O)N[C@@H](CC(C)C)C(=O)N[C@@H](CCC(=O)O)C(=O)N[C@@H](CCC(=O)O)C(=O)N[C@@H](CCC(=O)O)C(=O)N[C@@H](CC(C)C)C(=O)N[C@@H](CCCNC(=N)N)C(=O)N[C@H]1CCCCNC(=O)CC[C@@H](C(N)=O)NC(=O)[C@H]([C@@H](C)O)NC(=O)[C@H](CC(C)C)NC(=O)[C@H](CCCNC(=N)N)NC1=O [SD15193] (Ac-SRLEEELRKRLTE-NH2; lactam 9-13)

>  <qualitative.label>
T

$$$$
>  <compound>
CC(=O)N1CCC[C@H]1C(=O)N[C@@H](CO)C(=O)N[C@@H](CCCNC(=N)N)C(=O)N[C@@H](CC(C)C)C(=O)N[C@H]1CCC(=O)NCCCC[C@@H](C(=O)N[C@@H](CCCNC(=N)N)C(=O)N[C@@H](CCCNC(=N)N)C(=O)N[C@@H](CC(C)C)C(=O)N[C@H](C(=O)N[C@@H](CCC(=O)O)C(N)=O)[C@@H](C)O)NC(=O)[C@H](CC(C)C)NC(=O)[C@H](CCC(=O)O)NC(=O)[C@H](CCC(=O)O)NC1=O [SD15806] (Ac-PSRLEEELKRRLTE-NH2; lactam 5-9)

>  <qualitative.label>
T

$$$$
>  <compound>
CC(=O)N1CCC[C@H]1C(=O)N[C@@H](CO)C(=O)N[C@@H](CCCNC(=N)N)C(=O)N[C@@H](CC(C)C)C(=O)N[C@@H](CCC(=O)O)C(=O)N[C@H]1CSSC[C@H](C(=O)N[C@@H](CCCNC(=N)N)C(=O)N[C@@H](CCCNC(=N)N)C(=O)N[C@@H](CC(C)C)C(=O)N[C@H](C(=O)N[C@@H](CCC(=O)O)C(N)=O)[C@@H](C)O)NC(=O)[C@H](CC(C)C)NC(=O)[C@H](CCC(=O)O)NC1=O [SD15807] (Ac-PSRLECEL[dC]RRLTE-NH2; disulfide 6-9)

>  <qualitative.label>
F

$$$$
>  <compound>
CC(=O)N1CCC[C@H]1C(=O)N[C@@H](CO)C(=O)N[C@@H](CCCNC(=N)N)C(=O)N[C@@H](CC(C)C)C(=O)N[C@@H](CCC(=O)O)C(=O)N[C@H]1CCC(=O)NCCCC[C@H](C(=O)N[C@@H](CCCNC(=N)N)C(=O)N[C@@H](CC(C)C)C(=O)N[C@H](C(=O)N[C@@H](CCC(=O)O)C(N)=O)[C@@H](C)O)NC(=O)[C@H](CCCNC(=N)N)NC(=O)[C@H](CC(C)C)NC(=O)[C@H](CCC(=O)O)NC1=O [SD15808] (Ac-PSRLEEELR[dK]RLTE-NH2; lactam 6-10)

>  <qualitative.label>
T

$$$$

src = patent US20250154202A1
